Values compiled from patent US10954214B2.

System: TMD8 cells
procedureSummary: 4-day proliferation assay, TMD8
Type: cell-based
experimentalConditions: Homo sapiens, 96 h, 4 days incubation, CellTiterGLO, read-out: Anti-proliferation: TMD-8 IC50
Entries and their measured IC50 follow.
quantity: IC50

In [3]: df
Out[3]:
                          structureassmiles  observedmeasurement
0  Cc1ncnn1-c1ccc(NC(=O)c2cnn(-c3cncc4ccccc34)c2C(F)(F)F)cc1Cl             ~6.61 µM
1  Cn1nc(-c2ncc(NC(=O)c3cnn(-c4cccc5c(=O)[nH]ccc45)c3C(F)(F)F)cc2Cl)cc1N              > 20 µM
2  Cn1ccc(-c2ncc(NC(=O)c3cnn(-c4cccc5ncccc45)c3C(F)(F)F)cc2C#N)n1              > 20 µM
